# growth per record follows
# Tested on: M14 melanoma
# Method Notes: NCI-60 one-dose screen, 48 h (100 = growth as untreated, 0 = no growth, -100 = all killed)
# Protocol Conditions: 10 µM
About 83,000 compounds went through this panel and 20% of them were active in at least one assay; those are over-represented in the sample as a whole.
Expressed in %, but write only the number.

Reference set, count: 8
{"Compound": "Cc1cc2nc3c4ccccc4n(CCO)c3nc2cc1C", "Unit Tag": "%", "Quantitative Result": 84.6}
{"Compound": "O=C(Nc1ccc(F)c(Cl)c1)c1cc(-c2ccc(F)cc2F)ccc1O", "Unit Tag": "%", "Quantitative Result": 20}
{"Compound": "COc1ccc(C2N(c3ccc(Br)cc3)N=C(C(C)=O)N2[C@H]2[C@H](OC(C)=O)O[C@H](COC(C)=O)[C@@H](OC(C)=O)[C@@H]2OC(C)=O)cc1 (stereo partly specified)", "Unit Tag": "%", "Quantitative Result": 81.5}
{"Compound": "C=C(c1ccc(OC)c(N)c1)c1cc(C)nc2ccccc12", "Unit Tag": "%", "Quantitative Result": 16}
{"Compound": "S=c1nc(-c2ccccc2)cc(-c2cc3ccccc3nc2Cl)[nH]1", "Unit Tag": "%", "Quantitative Result": 36.7}
{"Compound": "O=c1c2ccccc2nc(COc2ccccc2)n1/N=C/c1ccc(N2CCCC2)cc1", "Unit Tag": "%", "Quantitative Result": 101}
{"Compound": "Cc1noc2c(Cc3ccccc3)nn(CC(=O)N/N=C/c3ccc(F)cc3)c(=O)c12", "Unit Tag": "%", "Quantitative Result": 66.1}
{"Compound": "CN(CCO)c1oc(-c2ccccc2)nc1[P+](c1ccccc1)(c1ccccc1)c1ccccc1", "Unit Tag": "%", "Quantitative Result": 12.2}

Query string: Fill in: growth on M14 melanoma, entry "CCCCSc1nc(Nc2ccc(/C(C)=N/NC(N)=S)cc2)c(C#N)c(-c2ccccc2)n1"
Result string: 76.6

Query string: Fill in: growth on M14 melanoma, entry "O=C(CSc1nnc(-c2c[nH]c3ccccc23)n1-c1ccccc1)Nc1ccc(C(=O)/C=C/c2ccccc2Cl)cc1"
Result string: 87.7

Query string: Fill in: growth on M14 melanoma, entry "O=C(CSc1ccc(-c2ccc(Cl)cc2)nn1)Nc1ccc(Cl)c(C(F)(F)F)c1"
Result string: 50.6

Query string: Fill in: growth on M14 melanoma, entry COc1cc(C2CC(c3ccc(C)cc3)=Nc3c(N)nc(N)nc3N2)ccc1Oc1nc(Nc2ccc(F)cc2)nc(N(C)C)n1 (stereo unspecified)
Result string: 67.5

Query string: Fill in: growth on M14 melanoma, entry "Brc1ccc(/C=C/c2n(Cc3ccc4ccccc4c3)c3ccccc3[n+]2Cc2ccc3ccccc3c2)cc1"
Result string: -31.7

Query string: Fill in: growth on M14 melanoma, entry "C=CCn1c(SCC(=O)Nc2ccc(C(=O)/C=C/c3ccccc3)cc2)nnc1-c1c[nH]c2ccccc12"
Result string: 35.3

Query string: Fill in: growth on M14 melanoma, entry "O=C(Nc1ccc(Cl)c(C(F)(F)F)c1)c1cncc(C#Cc2cnc3ccc(N4CCOCC4)nn23)c1"
Result string: 11.3

Query string: Fill in: growth on M14 melanoma, entry "C=CC(=O)Nc1nc(-c2cccc(NS(=O)(=O)c3cccc4c(N(C)C)cccc34)c2)cs1"
Result string: -78.7

These measurements were taken from PubChem BioAssay (NCI).
